Origin of measurements: patent US20220195015A1

Let's look at some binders and their measured EC50.
target: SARS-CoV-2 spike receptor binding domain (RBD), S protein residues 319-539 (SARS-CoV-2, UniProt P0DTC2 319-539); test: ELISA on coated RBD
Numbers only; they are read as ng/mL.

BINDER	EC50 [ng/mL]
C543 (antibody, V domains shown) VH: QVQLVESGGGVVQPGRSLRLSCTASGFTFSTAGMHWVRQAPGKGLEWVAVISYDGSNKDYADSVKGRFTISRDNSKSTLYLQMNSLRPEDTAVYYCAKDTPGGDDIMTGWGLYGMDVWGQGTTVTVSS VL: DIQMTQSPSSLSASVGDRVTITCRASQSISSYLNWYHQKPGKAPKLLIYAAISLQSGVPSRFSGSGFGTDFTLTISSLQPEDFAIYYCQQSYSTPWTFGQGTKVEIK	1.28

Continue with the next binder.
Field request: EC50 | item: C132 (antibody, V domains shown) VH: QVQLQESGPGLVKPSGTLSLTCAVSGGSISSNNWWSCVRQPPGKGLEWIGEIYHSGSTNYNPSLKSRVTISVDKSKNQFSLKLSSVTAADTAVYYCARGGDTAMGPEYFDYWGQGTLVTVSS VL: QSALTQPASVSGSPGQSITISCTGTSSDVGGYNYVSWYQQHPGKAPKLMIYDVSNRPSGVSNRFSGSKSGNTASLTISGLQAEDEADYYCSSYTSSSTLLFGGGTKLTVL
3.56
